Target: human neurokinin 2 (NK2) receptor (Homo sapiens, UniProt P21452)
Construct: expressed in transfected cells; host or cells: Chinese Hamster ovary (CHO) cells
Sequence (P21452 whole entry): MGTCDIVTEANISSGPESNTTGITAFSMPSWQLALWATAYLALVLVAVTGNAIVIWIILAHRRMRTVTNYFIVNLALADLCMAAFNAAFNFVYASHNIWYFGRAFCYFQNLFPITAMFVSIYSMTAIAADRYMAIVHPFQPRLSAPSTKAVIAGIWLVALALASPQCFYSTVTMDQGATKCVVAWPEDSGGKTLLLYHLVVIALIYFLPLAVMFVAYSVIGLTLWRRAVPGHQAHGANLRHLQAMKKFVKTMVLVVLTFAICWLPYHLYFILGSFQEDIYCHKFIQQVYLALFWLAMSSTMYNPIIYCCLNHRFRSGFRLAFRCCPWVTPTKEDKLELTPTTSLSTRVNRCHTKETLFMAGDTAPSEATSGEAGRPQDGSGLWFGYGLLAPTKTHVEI
Assay: Neurokinin Receptor Binding Assay, NK2
Settings: [3H]-Neurokinin A; CHO cell membranes; read-out: Ki (NK2)
pKi: −log10 of the molar value.

| MOLECULE | pKi |
| --- | --- |
| CON=C(COCc1cccc(C)c1F)C(CCN1CCC(O)(c2ccccc2)CC1)c1ccc(Cl)c(Cl)c1 (stereo not shown) [Example 22AK] | 8.70 |
| CON=C(COCc1cc(C(F)(F)F)cc(C(F)(F)F)c1)C(CCN1CCC(C(=O)N2CCCC2)CC1)c1ccc(Cl)c(Cl)c1 (stereo not shown) [Example 42L] | 6.91 |
| NC(CON=C(COCc1cc(C(F)(F)F)cc(C(F)(F)F)c1)C(CCN1CCC(N2CCCCC2)CC1)c1ccc(Cl)c(Cl)c1)=NO (stereo not shown) [Example 39F] | 7.92 |
| CON=C(COCc1noc(C(C)(C)C)n1)C(CCN1CCC(O)(c2ccccc2)CC1)c1ccc(Cl)c(Cl)c1 (stereo not shown) [Example 22AL] | 8.70 |
